Provide the recorded TGI for the entries that follow.
- System: SK-OV-3 ovarian
- assay.details: NCI tumour cell line growth inhibition, 48 h
// note: answer is a bare numeric in µM

Note down TGI recorded for COc1cc([C@@H]2c3cc4c(cc3[C@@H](NC(=O)c3cccc(F)c3)C3COC(=O)[C@@H]32)OCO4)cc(OC)c1O (stereo not given in full)
5.78

Respond only with TGI recorded for C/C(=C\c1ccc(Cl)c(Cl)c1)[N+](=O)[O-]
29.8

###

Provide the recorded TGI for the entries that follow.
- Test system: SF-295 CNS
- assay.details: NCI tumour cell line growth inhibition, 48 h

Return TGI for the following compound: CN(C)c1ccc(/C=N\N2C(=O)c3ccccc3C2=O)cc1
> 100 µM

Find the measured TGI of COc1ccc(Cn2cc3c(c2-c2cc(OC)c(OC)c(OC)c2)CCc2cnoc2-3)cc1[N+](=O)[O-] and report it.
2.09 µM

Quote TGI reported for Cc1cc(NS(=O)(=O)c2ccc(Nc3c4ccccc4nc4ccc(C(=O)Nc5ccc(S(N)(=O)=O)cc5)cc34)cc2)no1 please.
> 100 µM

Give TGI for the following compound: Clc1nc2n(c1/C=C/c1cccs1)CCS2
> 100 µM

Please report the measured TGI for C=C1C(=O)O[C@H]2[C@H]1CC(=O)/C(C)=C/CC[C@@]1(C)O[C@@H]21
31.6 µM

Tell me its TGI given O=C(Oc1ccccc1Cl)c1ccccc1Nc1ccnc(C(F)(F)F)c1 as the entry.
1.09 µM

Please report the measured TGI for Cc1ccc(S(=O)(=O)N2CCCC2C(=O)O[C@H]2CC[C@H]3CC=C[C@H]32)cc1 (stereo partly drawn)
> 100 µM

Tell me measured TGI for CC1=C(c2cc(C(=O)Nc3cccc(C(F)(F)F)c3)ncn2)Sc2ccccc2N1 please.
> 100 µM

Consider the compound C=C1CN(Cc2ccccc2)[C@@H]2CCCCC[C@H](C#N)[C@H]12 and give its recorded TGI.
> 30.7 µM

Return value of TGI for input CCCCC#CC#Cc1cccc(=O)o1 , no commentary.
40 µM

Item COc1cc2c(cc1OCc1ccccc1)NC(=S)[C@@H]1CCCN1C2=S : provide TGI
> 100 µM

Look up TGI of O=C(O)c1oc(C(=O)O)c(C(=O)O)c1C(=O)O and report it.
> 100 µM

Give me measured TGI, please, for this compound: Cn1c2cc(O)cc(O)c2c(=O)c2c([N+](=O)[O-])cccc21
> 100 µM

Item CSc1ccc(/C=C/c2ccnc3ccccc23)cc1 : provide TGI
27.5 µM

Please report TGI for the following compound: CCOC(=O)c1ccc(-n2c(SCC)nc3sc(C)c(C)c3c2=O)cc1
> 100 µM

Please supply the value of reported TGI for the item Cn1c(=S)c2[nH]c(SCCN3CCCC3)nc2n(C)c1=O
> 100 µM

Let me know recorded TGI for Cc1c(C)c2c(c(N)c1C#N)C(=O)N(CCN1CCNCC1)C2=O , thanks.
> 100 µM

Note TGI for the compound shown: S=c1sc2nc(Cl)nc(Cl)c2s1
31.7 µM

Where do the numbers come from? From PubChem BioAssay (NCI).
